The measurements presented in this section are drawn from PubChem BioAssay (NCI).

Measured GI50, listed per entry for reference.
System: MOLT-4 leukemia
experiment description: NCI tumour cell line growth inhibition, 48 h

Known GI50 results, listed for orientation:
compound=Cc1cccc(N(C)C(=O)[C@@H]2[C@H](O)CCN2c2nc(C)cc(C(F)(F)F)c2C#N)c1 observed_result="1.98 µM"
compound=O=C(CC(Cl)=C(Cl)Cl)Nc1ccccc1 observed_result="> 100 µM"

Now let's try a different one.
Fill in: GI50 of CCC(C)[C@H]1O[C@]2(CC[C@@H]1C)C[C@@H]1C[C@@H](C/C=C(\C)[C@@H](OC3C[C@H](OC)C(O[C@H]4C[C@H](OC)[C@@H](O)[C@H](C)O4)[C@H](C)O3)[C@@H](C)/C=C/C=C3\CO[C@@H]4[C@H](O)C(C)=C[C@@H](C(=O)O1)[C@]34O)O2 (stereo partly drawn) is ___ 4.77 µM

###

Measured TGI, listed per entry for reference.
Tested on: IGROV1 ovarian
experiment description: NCI tumour cell line growth inhibition, 48 h

Known TGI results, listed for orientation:
compound=O=P12N(CCN1c1ccccc1)CCN2c1ccccc1 metric_name=TGI observed_result="> 100 µM"
compound="CCN1C(=S)N(c2ccccc2)C2NC(=S)N(/N=C/C=C/c3ccccc3OC)C21 (stereo not given)" metric_name=TGI observed_result="> 100 µM"
compound=OCCN1CCN(CCCN2c3ccccc3Sc3ccc(Cl)cc32)CC1 metric_name=TGI observed_result="12.2 µM"
compound=CC(=O)Nc1ccc(NCC(=O)Nn2cnc3ccc(S(=O)(=O)Nc4ccc(NC(C)=O)cc4)cc3c2=O)cc1 metric_name=TGI observed_result="> 100 µM"
compound="COC(=O)C1CCc2c1c(=O)n1c([nH]c3ccccc31)c2C#N (stereo not given)" metric_name=TGI observed_result="> 100 µM"

Fill in: TGI of O=C(CSc1nc2ccc([N+](=O)[O-])cc2s1)c1ccc2ccccc2c1 is ___ > 100 µM

###

System: A498 renal
experiment description: NCI tumour cell line growth inhibition, 48 h; in the data active means GI50 below about 0.43 µM; inactive means the rest
API: response.call in yes (1) for active, no (0) for inactive

compound="COc1ccc(C(c2cc(OC)c(OC)c(OC)c2)n2ccnc2)cc1O (stereo not drawn)" system_tested="A498 renal" group_label="yes (1)"
compound=Cc1cc(S(=O)(=O)Nc2nc3ccccc3o2)c(SCc2ccccc2)cc1Cl system_tested="A498 renal" group_label="no (0)"
compound="COCC1CCCN1c1ccc(C=N/C(C#N)=C(\\N)C#N)cc1 (stereo not drawn)" system_tested="A498 renal" group_label="no (0)"
compound=CC(=O)c1ccc2c(c1)c1cc(C(C)=O)ccc1n2CCNC(C)C system_tested="A498 renal" group_label="yes (1)"
compound="CC(N)C(Cc1ccc(Cl)cc1)c1ccc(Cl)cc1 (stereo not drawn)" system_tested="A498 renal" group_label="no (0)"
compound=O=Nc1ccc(O)c(=O)cc1 system_tested="A498 renal" group_label="no (0)"
compound=CS(=O)(=O)Nc1cncc(-c2ccc3ncnc(Nc4ccc(F)c(Cl)c4)c3c2)c1 system_tested="A498 renal" group_label="no (0)"

Could you now look at the following compound, please?
How was COC[C@@H](N=C1NC(=O)/C(=C/c2ccc3ncccc3c2)S1)c1ccccc1 classified in this test? no (0)

###

Tested on: LOX IMVI melanoma
experiment description: NCI tumour cell line growth inhibition, 48 h
Measured TGI, listed per entry for reference.

compound=O=C(N/C(=C\c1ccc(Cl)cc1)c1nc2ccccc2[nH]1)c1ccccc1 observed_result="31.5 µM"
compound=Cc1nc(-n2nc(-c3ccccc3)cc2-c2ccccc2)sc1C(=O)/C=C/c1ccc(/C=C/C(=O)c2sc(-n3nc(-c4ccccc4)cc3-c3ccccc3)nc2C)cc1 observed_result="40.6 µM"

Now let's try a different one.
Fill in: TGI of CC(C)=CCC[C@]1(C)C=Cc2c(O)c3c(c(CC=C(C)C)c2O1)O[C@]12C(=C[C@@H]4CC1C(C)(C)O[C@@]2(C/C=C(/C)C(=O)O)C4=O)C3=O is ___ 4.95 µM
